Target system: UniProt:P03372
Sequence (P03372 1-595): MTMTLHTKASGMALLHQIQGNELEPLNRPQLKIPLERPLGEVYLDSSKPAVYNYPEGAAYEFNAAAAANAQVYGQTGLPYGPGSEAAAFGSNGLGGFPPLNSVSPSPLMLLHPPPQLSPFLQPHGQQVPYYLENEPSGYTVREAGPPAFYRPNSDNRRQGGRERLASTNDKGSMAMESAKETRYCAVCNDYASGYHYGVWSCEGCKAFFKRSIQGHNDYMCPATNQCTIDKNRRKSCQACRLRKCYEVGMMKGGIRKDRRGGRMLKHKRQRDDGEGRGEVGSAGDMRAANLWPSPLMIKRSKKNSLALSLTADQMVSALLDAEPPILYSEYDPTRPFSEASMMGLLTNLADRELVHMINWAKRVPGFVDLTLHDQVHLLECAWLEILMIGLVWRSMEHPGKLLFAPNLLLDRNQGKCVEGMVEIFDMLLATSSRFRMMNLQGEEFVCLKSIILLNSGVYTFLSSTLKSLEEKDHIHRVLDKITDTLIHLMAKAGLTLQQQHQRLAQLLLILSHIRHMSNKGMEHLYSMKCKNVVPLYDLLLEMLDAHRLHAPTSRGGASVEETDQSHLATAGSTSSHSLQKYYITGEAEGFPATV
Assay method text: Degradation of ERα in MCF-7 cells (immunoblotting, 4 h)
Format: cell-based
Measurement setup: 10nM compound
The label depends only on Degradation rate (%) of ERα in MCF-7 cells: rule met if it is at least 50%, rule not met if it is smaller.

CCN(C(=O)CN1CCC2(CC1)COc1c2ccc2c1CN(C1CCC(=O)NC1=O)C2=O)C1CC2(CCN(c3ccc([C@@H]4c5ccc(O)cc5CC[C@@H]4c4ccccc4)cc3)CC2)C1 (some centres unmarked) :: rule met
O=C1CCC(N2Cc3c(ccc4c3OCC43CCN(C4CC5(CCN(C6CCN(c7ccc([C@@H]8c9ccc(O)cc9CC[C@@H]8c8ccccc8)cc7)CC6)CC5)C4)CC3)C2=O)C(=O)N1 (some centres unmarked) :: rule met
O=C1CCC(N2Cc3c(ccc4c3OCC43CCN(C[C@H]4CC[C@H](C#Cc5ccc([C@@H]6c7ccc(O)cc7CC[C@@H]6c6ccccc6)cc5)CC4)CC3)C2=O)C(=O)N1 (some centres unmarked) :: rule not met

# input for lookup
Q. Has O=C1CCC(N2Cc3cc4c(cc3C2=O)CCC2(CCN(C3CCC5(CC3)CCN(c3ccc(C6c7ccc(O)cc7CCC6c6ccccc6)cc3)CC5)CC2)O4)C(=O)N1 (centres unmarked) a recorded Degradation rate (%) of ERα in MCF-7 cells greater than or equal to 50%?
A. rule not met

* * *

Target system: AR protein (Homo sapiens, UniProt P10275, T878A)
Construct: host or cells: LNCaP FGC
Sequence (P10275 1-920 T878A): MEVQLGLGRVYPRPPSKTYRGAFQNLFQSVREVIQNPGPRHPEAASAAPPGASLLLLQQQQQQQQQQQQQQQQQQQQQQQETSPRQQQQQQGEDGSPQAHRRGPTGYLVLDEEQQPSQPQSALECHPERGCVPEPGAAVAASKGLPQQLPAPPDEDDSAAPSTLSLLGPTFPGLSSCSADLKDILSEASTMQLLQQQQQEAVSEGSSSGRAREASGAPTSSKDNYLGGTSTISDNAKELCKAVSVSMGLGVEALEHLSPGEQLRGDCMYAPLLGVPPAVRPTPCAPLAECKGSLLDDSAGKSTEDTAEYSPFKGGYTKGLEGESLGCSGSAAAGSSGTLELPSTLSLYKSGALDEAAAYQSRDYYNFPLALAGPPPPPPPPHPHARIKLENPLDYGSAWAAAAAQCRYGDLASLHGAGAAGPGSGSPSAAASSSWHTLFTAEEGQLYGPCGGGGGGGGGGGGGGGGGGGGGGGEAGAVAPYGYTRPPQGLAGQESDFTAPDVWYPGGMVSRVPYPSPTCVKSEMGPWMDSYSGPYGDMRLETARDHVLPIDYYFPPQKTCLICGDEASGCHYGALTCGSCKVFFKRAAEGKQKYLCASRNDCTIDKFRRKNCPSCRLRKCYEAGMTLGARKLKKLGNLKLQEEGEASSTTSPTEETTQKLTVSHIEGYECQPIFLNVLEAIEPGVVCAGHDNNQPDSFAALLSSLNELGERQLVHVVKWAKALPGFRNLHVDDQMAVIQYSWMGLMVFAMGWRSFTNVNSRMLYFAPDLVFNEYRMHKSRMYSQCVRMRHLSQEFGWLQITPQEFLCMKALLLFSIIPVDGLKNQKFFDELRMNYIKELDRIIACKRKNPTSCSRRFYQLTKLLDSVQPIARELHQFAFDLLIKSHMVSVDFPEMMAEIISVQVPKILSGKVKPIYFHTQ
Assay method text: Degradation of AR protein in LNCAP cells (Western blot, 8 h)
Format: cell-based
Measurement setup: LNCaP FGC cells, 100 nM
Protocol: After 8 h, the culture medium was discarded, and the cells were washed with PBS. After the cells were washed with PBS, RIPA lysis buffer containing 1% Protease Inhibitor Cocktail was added, and the total protein extract was obtained after lysis and centrifugation, and the protein concentration in the extract was detected by BCA method. […] Bands were analyzed in grayscale using the software Image Studio. For each sample, GAPDH protein bands were detected as internal reference. […]
Value kind: Degradation rates of the AR protein in LNCAP cells, 100 nM (%)
Form entry: value (%) — number only.

Solved entries:
COc1cc(O[C@H]2CC[C@H](NC(=O)c3ccc(N4CCC(C)(CN5CCC6(CC5)COc5c6ccc6c5C(=O)N(C5CCC(=O)NC5=O)C6)CC4)nn3)CC2)ccc1C#N (relative stereo) [2-261] :: 70
COc1cc(O[C@H]2C(C)(C)[C@H](NC(=O)c3ccc(N4CCC(CN5CCC6(CC5)COc5c6ccc6c5C(=O)N(C5CCC(=O)NC5=O)C6)(OC)CC4)cc3)C2(C)C)ccc1C#N (relative stereo) [2-293] :: 82

Kindly review the next compound as well.
Q. Can you look up the measured Degradation rates of the AR protein in LNCAP cells, 100 nM (%) of N#Cc1ccc(O[C@H]2CC[C@H](NC(=O)c3ccc(N4CCC(F)(CN5CCC6(CC5)COc5c6ccc6c5C(=O)N(C5CCC(=O)NC5=O)C6)CC4)nn3)CC2)cc1Cl (relative stereo) [2-315] for me?
A. 44

* * *

In this section, each of the molecules is paired with its reported Degradation rates of the AR protein in VCAP cells, 5 nM.
Target system: AR protein (Homo sapiens, UniProt P10275)
Construct: host or cells: VCaP
Type: cell-based
Measurement setup: 5 nM, 8 h
The reply should contain only the number, in %.

Solved cases (4 shown):
N#Cc1ccc(O[C@H]2CC[C@H](NC(=O)c3ccc(N4CCC(CN5CCC6(CC5)COc5c6ccc6c5C(=O)N(C5CCC(=O)NC5=O)C6)CC4)nn3)CC2)cc1Cl (relative stereo) :: 89
CC1(CN2CCC3(CC2)COc2c3ccc3c2C(=O)N(C2CCC(=O)NC2=O)C3)CCN(c2ccc(C(=O)N[C@H]3CC[C@H](Oc4ccc(C#N)c(Cl)c4)CC3)nn2)CC1 (relative stereo) :: 75
C[C@H]1CC2(CCN(c3ccc(N4CCC(CN5CCC6(CC5)COc5c6ccc6c5C(=O)N(C5CCC(=O)NC5=O)C6)CC4)cc3)CC2)CN1c1ccc(C#N)c(Cl)c1 (some centres unmarked) :: 47
COc1cc(O[C@H]2C(C)(C)[C@H](NC(=O)c3ccc(N4CCC(C)(CN5CCC6(CC5)COc5c6ccc6c5C(=O)N(C5CCC(=O)NC5=O)C6)CC4)cc3)C2(C)C)ccc1C#N (relative stereo) :: 72

Consider the additional molecule presented here.
Q. Quick check: Degradation rates of the AR protein in VCAP cells, 5 nM of COc1cc(O[C@H]2CC[C@H](NC(=O)c3ccc(N4CCC(CN5CCC6(CC5)COc5c6ccc6c5C(=O)N(C5CCC(=O)NC5=O)C6)CC4)nn3)CC2)ccc1C#N (relative stereo) ?
A. 91

* * *

Items are presented alongside their recorded IC50.
Test system: T-47D cells
Assay method text: Inhibition of cell proliferation in T-47D cells (CCK-8, 6 days)
Assay type: cell-based
Measurement setup: 6 days of treatment, Table 3
Numeric answer only, unit nM assumed.

O=C1CCC(N2Cc3ccc4c(c3C2=O)OCC42CCN(C3CC4(CCN(c5ccc([C@@H]6c7ccc(O)cc7CC[C@@H]6c6ccccc6)cc5)CC4)C3)CC2)C(=O)N1 (stereo partly drawn) :: 6.52
O=C1CCC(N2Cc3c(ccc4c3OCC43CCN(CC(=O)N4CCC5(CCN(c6ccc([C@@H]7c8ccc(O)cc8CC[C@@H]7c7ccccc7)cc6)C5)C4)CC3)C2=O)C(=O)N1 (stereo partly drawn) :: 1.8

Okay, now this compound:
Q. Name the reported IC50 value associated with the compound O=C1CCC(N2Cc3c(ccc4c3OCC43CCN(CCN4CCN(c5ccc([C@@H]6c7ccc(O)cc7CC[C@@H]6c6ccccc6)cc5)CC4)CC3)C2=O)C(=O)N1 (stereo partly drawn)
A. 1.22

Cited source for all entries: patent EP4656642A1
